The values you see were collected from patent US11395857B2.

assay: Biodistribution of 177Lu-labeled αMSH analogues in mice bearing B16F10 mouse melanoma; format: in vivo, C57BL/6J mice; conditions: mouse, liver, iv, total radioactivity; 120 h p.i., C57BL/6J mice, B16F10 melanoma; read-out: Biodistribution, Liver
MEASURE: tissue uptake at 120 h
Answer with the value and then the unit.

CCCC[C@H](NC(=O)CN1CCC(NC(=O)[C@H](CCCCNC(=O)CN2CCN(CC(=O)O)CCN(CC(=O)O)CCN(CC(=O)O)CC2)NC(=O)[C@H](CCC(=O)O)NC(=O)CCCc2ccc(I)cc2)CC1)C(=O)N[C@H]1CC(=O)NCCCC[C@@H](C(N)=O)N(C)C(=O)[C@H](Cc2c[nH]c3ccccc23)N(C)C(=O)[C@H](CCCNC(=N)N)N(C)C(=O)[C@@H](Cc2ccccc2)NC(=O)[C@H](Cc2c[nH]cn2)N(C)C1=O [^177Lu-labeled CCZ01088, metal not drawn] = 0.55 %ID/g
CCCC[C@H](NC(=O)CN1CCC(NC(=O)CN2CCN(CC(=O)O)CCN(CC(=O)O)CCN(CC(=O)O)CC2)CC1)C(=O)N[C@H]1CC(=O)NCCCC[C@@H](C(N)=O)N(C)C(=O)[C@H](Cc2c[nH]c3ccccc23)NC(=O)[C@H](CCCNC(=N)N)N(C)C(=O)[C@@H](Cc2ccccc2)NC(=O)[C@H](Cc2c[nH]cn2)NC1=O [^177Lu-labeled CCZ01106, metal not drawn] = 0.34 %ID/g
CCCC[C@H](NC(=O)CN1CCC(NC(=O)CN2CCN(CC(=O)O)CCN(CC(=O)O)CCN(CC(=O)O)CC2)CC1)C(=O)N[C@H]1CC(=O)NCCCC[C@@H](C(N)=O)N(C)C(=O)[C@H](Cc2c[nH]c3ccccc23)N(C)C(=O)[C@H](CCCNC(=N)N)N(C)C(=O)[C@@H](Cc2ccccc2)NC(=O)[C@H](Cc2c[nH]cn2)N(C)C1=O [^177Lu-labeled CCZ01099, metal not drawn] = 0.19 %ID/g
CCCC[C@H](NC(=O)CN1CCC(NC(=O)[C@H](CCCCNC(=O)CN2CCN(CC(=O)O)CCN(CC(=O)O)CCN(CC(=O)O)CC2)NC(=O)[C@H](CCC(=O)O)NC(=O)CCCc2ccc(I)cc2)CC1)C(=O)N[C@H]1CC(=O)NCCCC[C@@H](C(N)=O)N(C)C(=O)[C@H](Cc2c[nH]c3ccccc23)NC(=O)[C@H](CCCNC(=N)N)N(C)C(=O)[C@@H](Cc2ccccc2)NC(=O)[C@H](Cc2c[nH]cn2)NC1=O [^177Lu-labeled CCZ01118, metal not drawn] = 1.25 %ID/g
CCCC[C@H](NC(=O)CN1CCC(NC(=O)CN2CCN(CC(=O)O)CCN(CC(=O)O)CCN(CC(=O)O)CC2)CC1)C(=O)N[C@H]1CC(=O)NCCCC[C@@H](C(N)=O)NC(=O)[C@H](Cc2c[nH]c3ccccc23)NC(=O)[C@H](CCCNC(=N)N)NC(=O)[C@@H](Cc2ccccc2)NC(=O)[C@H](Cc2c[nH]cn2)NC1=O [^177Lu-labeled CCZ01048, metal not drawn, reference compound] = 0.16 %ID/g

Let's switch to this molecule now.
Task: Given the entry CCCC[C@H](NC(=O)CN1CCC(NC(=O)[C@H](CCCCNC(=O)CN2CCN(CC(=O)O)CCN(CC(=O)O)CCN(CC(=O)O)CC2)NC(=O)[C@H](CCC(=O)O)NC(=O)CCCc2ccc(I)cc2)CC1)C(=O)N[C@H]1CC(=O)NCCCC[C@@H](C(N)=O)NC(=O)[C@H](Cc2c[nH]c3ccccc23)NC(=O)[C@H](CCCNC(=N)N)NC(=O)[C@@H](Cc2ccccc2)NC(=O)[C@H](Cc2c[nH]cn2)NC1=O [^177Lu-labeled CCZ01082, metal not drawn] , report its measured tissue uptake at 120 h.
Output: 0.9 %ID/g
